tested on: FRK; conditions: concentration: 1 μM, replicates: in singlicate; n = 1;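 note: KINOMEscan kinase panel screen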
METRIC_NAME: %Inh (%)
Provide the reading as a plain figure in %.

COC(=O)C(Cc1ccccc1)NC(=O)NC1CCN(c2ccnc(Nc3ccc(F)cc3)n2)C1 (centres unmarked) :: 0

Endpoint output: %Inh of `Cc1c(Cn2c3ccccc3n3c(=O)cc(N4CCOCC4)nc23)cccc1C(F)(F)F` . Value?
0

Endpoint output: %Inh of `COc1cccc(NC(=O)Nc2ccc(C)c(-c3ccc(C(=O)Nc4ccncc4)cc3)c2)c1` . Value?
10

Endpoint output: %Inh of `COc1ccc2cc(-c3nc(-c4ccccc4C(C)C)[nH]c3-c3ccncc3)ccc2c1` . Value?
8

Endpoint output: %Inh of `COc1ccc(CSc2nnc(-c3ccc4ncsc4c3)o2)cc1C(F)(F)F` . Value?
0

Endpoint output: %Inh of CC(=O)c1cccc(NC(=O)NC2CCN(c3ccnc(Nc4ccc(F)cc4)n3)C2)c1 (centres unmarked) . Value?
0

Endpoint output: %Inh of `CC(C)c1cc(-c2ccc3c(N)n[nH]c3c2)nc(N)n1` . Value?
0

Endpoint output: %Inh of `CNc1nc(-c2ccc3c(N)n[nH]c3c2)cc(N2C[C@@H](C(=O)Nc3ccccc3)CC[C@H]2C)n1` . Value?
0

----------
As shown below, each of these molecules has a reported %Inh value.
test system: MARK3; settings: concentration: 1 μM, replicates: in singlicate; n = 1
Provide the reading as a plain figure in %.

Illustrative cases are given below, each with its answer.
Cc1ccc(NC(=O)c2ccc(Cl)cc2)cc1-c1ccc(C(=O)Nc2ccncc2)cc1 :: 0
COC(=O)c1cccc(NC(=O)NC2CCN(c3ccnc(Nc4ccc(F)cc4)n3)C2)c1 (centres unmarked) :: 42
CS(=O)(=O)Cc1ccc(Nc2nccc(-c3c(-c4cccc(NC(=O)C5CCCCC5)c4)nn4ncccc34)n2)cc1 :: 0
FC(F)(F)c1ccccc1-c1cc(-c2c[nH]nc2-c2ccccn2)ccn1 :: 0
Cc1c(Cn2c(C)c(C)n3c(=O)cc(N4CCOCC4)nc23)cccc1C(F)(F)F :: 19
Cn1cncc1C(=O)NC1CCN(c2ccnc(Nc3ccc(F)cc3)n2)C1 (centres unmarked) :: 0
COc1ccc(Nc2nccc(NCCNC(=O)Nc3cc(C)ccc3C)n2)cc1 :: 0

Shift focus to the following entry.
Endpoint output: %Inh of COC(=O)C(Cc1ccccc1)NC(=O)NC1CCN(c2ccnc(Nc3ccc(F)cc3)n2)C1 (centres unmarked) . Value?
0

----------
test system: TESK1; details: concentration: 1 μM, replicates: in singlicate; n = 1
METRIC_NAME: %Inh (%)
Provide the reading as a plain figure in %.

COC(=O)c1cccc(NC(=O)NC2CCN(c3ccnc(Nc4ccc(OC)cc4)n3)C2)c1 (stereo not drawn) :: 13

Shift focus to the following entry.
Entry `Cc1ccc(NC(=O)Nc2ccc(Cl)c(C(F)(F)F)c2)cc1-c1ccc(C(=O)Nc2ccncc2)cc1` , system TESK1: what %Inh was measured?
23

----------
tested on: CDK11; construct: gene CDK19; settings: concentration: 1 μM, replicates: in singlicate; n = 1
Decision: %Inh compared against 10%; not below it gives Y, below it gives N.

These solved cases illustrate the format of a correct answer.
CCn1c(-c2ccccc2)nc2cnccc21 :: N
CSc1ccc(-c2nc3n(c2-c2ccncc2)CCC3)cc1 :: N
CCCCc1nn2ncccc2c1-c1ccnc(NC2CC2)n1 :: N
Cc1ccc(NC(=O)Nc2ccccc2F)cc1-c1ccc(C(=O)Nc2ccncc2)cc1 :: Y

# bool: %Inh of `CC[C@@H]1CO[C@H](C(=O)Nc2ccccc2)CN1c1cc(-c2ccc3c(N)n[nH]c3c2)nc(NC)n1` >= 10%
Y

# bool: %Inh of `CS(=O)(=O)CCNCc1nc(-c2ccc3ncnc(Nc4ccc5c(cnn5Cc5ccccc5)c4)c3c2)cs1.Cl.Cl` >= 10%
N

# bool: %Inh of COC(=O)c1cccc(NC(=O)NC2CCN(c3ccnc(Nc4ccc(F)cc4)n3)C2)c1 (stereo not drawn) >= 10%
Y

# bool: %Inh of `Nc1nccc(-c2c(-c3ccc(F)cc3)ncn2C2CCN(Cc3ccccc3)CC2)n1` >= 10%
N

# bool: %Inh of `COc1ccc(CSc2nnc(-c3ccc4c(c3)CCO4)o2)cc1` >= 10%
N
